target: human TLR8 (Homo sapiens); construct: host or cells: HEK293 reporter cells; test: HEK293 NFKB reporter assay, human TLR8; format: cell-based; details: Table 1a; HEK293 reporter cells expressing human TLR8; read-out: HEK293 hTLR8 EC50
Sequence (Q9NR97 27-1041): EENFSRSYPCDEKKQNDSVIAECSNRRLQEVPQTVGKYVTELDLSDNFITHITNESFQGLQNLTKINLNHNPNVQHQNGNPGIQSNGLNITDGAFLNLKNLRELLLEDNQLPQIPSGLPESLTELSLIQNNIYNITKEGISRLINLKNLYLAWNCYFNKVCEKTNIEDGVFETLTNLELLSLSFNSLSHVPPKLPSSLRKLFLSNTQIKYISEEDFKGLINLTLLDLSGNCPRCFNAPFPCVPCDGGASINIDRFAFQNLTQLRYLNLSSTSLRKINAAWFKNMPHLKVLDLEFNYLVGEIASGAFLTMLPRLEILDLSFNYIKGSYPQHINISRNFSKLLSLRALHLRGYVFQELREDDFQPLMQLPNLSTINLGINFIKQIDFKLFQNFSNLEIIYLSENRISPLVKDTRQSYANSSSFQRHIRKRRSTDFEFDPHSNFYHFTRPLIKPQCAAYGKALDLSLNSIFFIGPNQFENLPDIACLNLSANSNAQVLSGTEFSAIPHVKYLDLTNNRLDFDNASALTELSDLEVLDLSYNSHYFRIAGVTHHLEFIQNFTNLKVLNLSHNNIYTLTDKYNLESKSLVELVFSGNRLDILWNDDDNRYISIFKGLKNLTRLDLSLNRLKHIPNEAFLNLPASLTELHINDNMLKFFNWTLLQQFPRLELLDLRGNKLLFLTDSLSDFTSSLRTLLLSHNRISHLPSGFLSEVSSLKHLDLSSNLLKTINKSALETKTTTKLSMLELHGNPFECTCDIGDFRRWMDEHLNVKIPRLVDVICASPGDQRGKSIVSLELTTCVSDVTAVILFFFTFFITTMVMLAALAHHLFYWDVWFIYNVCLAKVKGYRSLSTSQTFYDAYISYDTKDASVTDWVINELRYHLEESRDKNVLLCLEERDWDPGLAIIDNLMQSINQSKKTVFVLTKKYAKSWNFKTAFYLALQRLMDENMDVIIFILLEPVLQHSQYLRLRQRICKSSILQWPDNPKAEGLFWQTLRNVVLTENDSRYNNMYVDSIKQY
measurementLabel: EC50 (nM)

[[record]]
structurenotation = "CCCN(CCCNC(=O)OC(C)(C)C)C(=O)C1=Cc2ccc(C(=O)Nc3ccc(N4CCC(C(=O)NCCNC(C)=O)CC4)nc3)cc2N=C(N)C1"
testedsystem = "human TLR8 (Homo sapiens)"
qualifieroperator = "="
datavalue = 1050

[[record]]
structurenotation = "CCCN(CCC)C(=O)C1=Cc2ccc(-c3cccc(S(=O)(=O)N4CC(CN)C4)c3)cc2N=C(N)C1"
testedsystem = "human TLR8 (Homo sapiens)"
qualifieroperator = "="
datavalue = 103

[[record]]
structurenotation = "CCCN(CCNC(=O)OC(C)(C)C)C(=O)C1=Cc2ccc(-c3cccc(S(=O)(=O)N4CC(CO)C4)c3)cc2N=C(N)C1"
testedsystem = "human TLR8 (Homo sapiens)"
qualifieroperator = ">"
datavalue = 9000

[[record]]
structurenotation = "CCCN(CCCNC(=O)OC(C)(C)C)C(=O)C1=Cc2ccc(-c3cccc(S(=O)(=O)N4CC(CO)C4)c3)cc2N=C(N)C1"
testedsystem = "human TLR8 (Homo sapiens)"
qualifieroperator = "="
datavalue = 106

[[record]]
structurenotation = "CCCN(CCCCCNC(=O)OC(C)(C)C)C(=O)C1=Cc2ccc(-c3cccc(S(=O)(=O)N4CC(CO)C4)c3)cc2N=C(N)C1"
testedsystem = "human TLR8 (Homo sapiens)"
qualifieroperator = "="
datavalue = 629

[[record]]
structurenotation = "CCCN(CCC)C(=O)C1=Cc2c(CCCCN)cc(-c3cccc(S(=O)(=O)N4CC(CO)C4)c3)cc2N=C(N)C1"
testedsystem = "human TLR8 (Homo sapiens)"
qualifieroperator = "="
datavalue = 1700

[[record]]
structurenotation = "CCCN(CCCNC(=O)Nc1cccc(C#N)c1)C(=O)C1=Cc2ccc(-c3cccc(S(=O)(=O)N4CC(CO)C4)c3)cc2N=C(N)C1"
testedsystem = "human TLR8 (Homo sapiens)"
qualifieroperator = "="
datavalue = 2380

[[record]]
structurenotation = "CCCN(CCC)C(=O)C1=Cc2c(CCCCNC(=O)OC(C)(C)C)cc(-c3cccc(S(=O)(=O)N4CC(CO)C4)c3)cc2N=C(N)C1"
testedsystem = "human TLR8 (Homo sapiens)"
qualifieroperator = "="
datavalue = 256

[[record]]
structurenotation = "CCCN(CCCNC(=O)OC(C)(C)C)C(=O)C1=Cc2ccc(-c3ccc(C(=O)N4CCCC4)cc3)cc2N=C(N)C1"
testedsystem = "human TLR8 (Homo sapiens)"
qualifieroperator = "="
datavalue = 1680

[[record]]
structurenotation = "CCCN(CCCNC(=O)NC(C)(C)C)C(=O)C1=Cc2ccc(-c3cccc(S(=O)(=O)N4CC(CO)C4)c3)cc2N=C(N)C1"
testedsystem = "human TLR8 (Homo sapiens)"
qualifieroperator = "="
datavalue = 1390

[[record]]
structurenotation = "CCCN(CCC)C(=O)C1=Cc2ccc(-c3cccc(S(=O)(=O)N4CC(CNC(=O)OC(C)(C)C)C4)c3)cc2N=C(N)C1"
testedsystem = "human TLR8 (Homo sapiens)"
qualifieroperator = "="
datavalue = 265

[[record]]
structurenotation = "CCCN(CCCN(C)C(=O)OC(C)(C)C)C(=O)C1=Cc2ccc(-c3cccc(S(=O)(=O)N4CC(CO)C4)c3)cc2N=C(N)C1"
testedsystem = "human TLR8 (Homo sapiens)"
qualifieroperator = "="
datavalue = 4310

[[record]]
structurenotation = "CCCN(CCC)C(=O)C1=Cc2ccc(-c3ccc(CN)c(S(=O)(=O)N4CC(CO)C4)c3)cc2N=C(N)C1"
testedsystem = "human TLR8 (Homo sapiens)"
qualifieroperator = "="
datavalue = 9760

[[record]]
structurenotation = "CCCN(CCC)C(=O)C1=Cc2ccc(C(=O)Nc3cncc(CNC(=O)OC(C)(C)C)c3)cc2N=C(N)C1"
testedsystem = "human TLR8 (Homo sapiens)"
qualifieroperator = "="
datavalue = 4.28

[[record]]
structurenotation = "CCCN(CCCN(C)C(=O)OC(C)(C)C)C(=O)C1=Cc2ccc(-c3ccc(C(=O)N4CCCC4)cc3)cc2N=C(N)C1"
testedsystem = "human TLR8 (Homo sapiens)"
qualifieroperator = ">"
datavalue = 9000

